# System: PriA–SSB C-terminal tail interaction (Klebsiella pneumoniae)
# PROCEDURE_SUMMARY: blocks PriA binding to SSB C-terminal tail, primary screen, biochemical, AlphaScreen (AID 1272365)
# EXPERIMENTAL_PARAMETERS: AlphaScreen SSBct-PriA binding, biotinylated peptide; at 33 µM
Among all 430,000 compounds or so, about 2,600 (0.6%) were called active. Cut-off read from the data, not from the text of the source: active = inhibition mostly above about 37% (no sharp cut-off); inactive = mostly below about 20%. Many of the other results were omitted from the sample, so actives are more common in it than they were.
Could you please pick one outcome from this set? YES = active, NO = inactive

Please review the entries below; each comes with its answer.
COMPOUND | CATEGORY
O=C(O)C(NC(=O)c1ccc(Cl)cc1)=C(Cl)Cl | NO
Cc1ccc(/C=C/S(=O)(=O)N2CC(S(=O)(=O)c3ccc(F)cc3)C2)cc1 | NO

Q: GET /call?item= Cc1ccc(-c2cc3c(=O)n(CC(=O)Nc4ccc5c(c4)OCO5)ncn3n2)cc1C returns the recorded outcome of this test.
A: NO

Q: GET /call?item= CS(=O)(=O)N1CCCC(C(=O)Nc2nc(-c3nc4ccccc4s3)cs2)C1 (stereo not given) returns the recorded outcome of this test.
A: NO

Q: GET /call?item= CC(=O)c1sc(NC(=O)COc2ccc(Cl)cc2)nc1C returns the recorded outcome of this test.
A: NO

Q: GET /call?item= OCc1cccc2cccnc12 returns the recorded outcome of this test.
A: NO

Q: GET /call?item= O=C(C[C@@H]1C/C=C/CC[C@H](Cc2ccc(F)cc2)C(=O)OC[C@@H](Cc2ccccc2)NC1=O)NCCO returns the recorded outcome of this test.
A: NO
